# Assay procedure: yeast display, Sf9 membrane polyspecificity reagent, FACS + sequencing; frameworks hold sequencing errors
Measured quantity: polyreactivity (PSR sort gate)

INSERT INTO assay_data (sequence_record, recorded_value) VALUES
  ('QVQLVESGGGLVQAGGSLRLSCAASGRIFGPYTMGWYRPAPGKERELVARISRRGGSTYYADSVKGRFTISRDNAKNTVYLQMNSLKPEDTAVYYCAAWFTSTRPYDYWGQGTQVTVSS', 'high polyreactivity'),
  ('QVQLVESWGGLVQAGGSLRLSCAASGSTMRYYAMGWYRQAPGKERELVAAISSRGGRTYYSDSVKGRFTISRDNAKNTVYLQMNSLKPEDTAVYYCAARARERYYWGQGNQVTVSS', 'high polyreactivity'),
  ('QVQLVESGGGLVQAGGSLRLSCAASGFIFYYYAMGWYRQAPGKERELVAAISKSGGSTYYADSVKGRFTISRDNAKKTVYLQMNSLIPEDTAVYYCAAVVTTWPYYGFGYWGQGTQVTVSS', 'high polyreactivity'),
  ('QVQLVESGGGLVQAGGSLRLSCAASGFIFGYYAMGWYRQAPGKERELVAAISGDAGRTYYADSVKGRFTISRDNAKNTVYLQMNSLKPEDTAVYYCADADTYKMDYWGQGTQVTVSS', 'low polyreactivity'),
  ('QVQLVESGGALVQAGGSHRLSCAASGRIFAGNAMGWYRMAPGKEMELLAAISKSGGSTYYADSVKGRFTISRDNAKNTVYLQMNSLKAEDTAVSYCAKLYYPVSDQYDYYYWGPGTQVTVSS', 'low polyreactivity'),
  ('QVQLVESGGGLVQAGGCLRLSCAASGYIFRVYDMGWYRQAPGKERELVAAISGSGGRTYYADSVKGRFTISRDNAKNTVYLQMISLKPEDTAVYDCSAYRVSEYDYWGQGTQVTVSS', 'high polyreactivity'),
  ('QVQLVESGGGLVQAGGSLRLSSAASGSTFEYNAMGWYRQAPGKERELVASSTNYADSVKGRFTISRDNAKNTVYLQMNSLKPEDTAVYYCAREQGVNRNHDYWGQGTQVTVSS', 'low polyreactivity'),
  ('QVQLVESGGGLVQAGGSLRLSCAASGRTFDVYTMGWYRQAPGKERELVAAINGGGSTYYADSVKGRFTISRDNAKNTVYSQMNSLKPEDTAVYYCAAKFRAGRSSYYWGQGTQVTVSS', 'high polyreactivity'),
  ('QVQLVESGGGLFQAGGSLRLSCAASGSIFDDYAMGWYRQAPGKERELVAAISSSGTSTYYADSVKGRFTISRDNAKNTVYLQMNSLKPEDTAVFYCAARSAILKSGYLMDYWGQGTQVTVSS', 'low polyreactivity');

###

# Assay procedure: yeast display, Sf9 membrane polyspecificity reagent, FACS + sequencing; frameworks hold sequencing errors
Measured quantity: polyreactivity (PSR sort gate)

INSERT INTO assay_data (sequence_record, measured_quantity, recorded_value) VALUES
  ('QVQLVESGGGLVQAGGSLRLSCAASGRTFSGYVMGWYRQAPAKERELVAAIARNGGSRYYADSVKGRFTISRDKAKNTVYLQMNSLTPEDTAVYYCAADASCWRRHYYWGQGTQVTVSS', 'polyreactivity (PSR sort gate)', 'high polyreactivity'),
  ('QVQLVESGGGLVQAGGSLRLSCAASGLTLGSYAMGWYRQAPGKERELVAAISRRSGRTYYADSVKGRFTISRDNAKNTVYLQMNSLKPEDTAVYYCNRGYTAQVYTEFDYWGQGTQVTVSS', 'polyreactivity (PSR sort gate)', 'low polyreactivity'),
  ('QVQLVESGGGLVQAGGSLRLSCAASGSITVPYGMGWYRQAPGKERELVAAITGGSTNYADSVKGRFTISRDNAKNTVYLQMNSLKPEDTAVYYCAADWWALYTRYDYWGQGSQVTVSS', 'polyreactivity (PSR sort gate)', 'low polyreactivity'),
  ('QVQLVESGGGLVQAGRSLRLSCAASGFIFGHNAMGWSRQAPGKERELFAAIRSRGGSTYYADSVKGRFTISRDNAKNTVYLQMNSLKREDTAVYYCAADGAVVSSSRKFVYWGQGTQVTVSS', 'polyreactivity (PSR sort gate)', 'low polyreactivity'),
  ('QVHLVESGGGLVQAGGSLRLSCYASGRIFRYYAMGWYRQPPGKERELVAVINCSGGSTYYAVSVKGRFTISRDNAKNSVYLQMNSLKPEDTAVYYCYVYSVYPQFNYWGQGTQVTVSS', 'polyreactivity (PSR sort gate)', 'high polyreactivity'),
  ('QVQLVESGGGLVQAGGSLRLSCAASGRTFGKNAMGWYRPAPGKERELVAAIRYRTGSTYYADSVKGRFTISRDNAKNTVYLQMNSLKPEDTAVYYCAKVGSSPLYWGQGTHVTVSS', 'polyreactivity (PSR sort gate)', 'high polyreactivity'),
  ('QVQLQESGAGLVQAGGSLRLICAASGNIFRGDYVGWYHQAPGKEREFVASITGGGNTNFADSVKGRYSISRDNAKKTVYLKMNSLKPEDTAVYYCAVFDAWLARLIFWGQGSQVTVSS', 'polyreactivity (PSR sort gate)', 'high polyreactivity'),
  ('QVQLVESGGGLVQAGGSLRLSCAASGSTFYLNALGGYRQAPGKEREFVAAIDTGTGTYYADSVKGRFTISRDNAKNTVYLQMNRLKPEDTAVYYCAKDDLLVVRNVWFDYWGQGTQVTVSS', 'polyreactivity (PSR sort gate)', 'low polyreactivity'),
  ('QVQLVESGGGLVQAGGSLRLSCAASGSIFFLYTMGWYRQARGKERELVAAITRNGGSTYYADSVKGRFTISRDNAKNTVYLQMNSLKPEDTAVYYCNALRWYSYNYWGQGTQVTVSS', 'polyreactivity (PSR sort gate)', 'high polyreactivity'),
  ('QVQLVESGGGLVQAGGSLRLSCAASGIIFRAYAMGWYRPAPGKERELVAAISRSGGSTYYADSVKGRFTISRDNAKNTVYLQMNSLKQEDTAVYYCAADTVWYLYYYWGQGSQVTVSS', 'polyreactivity (PSR sort gate)', 'high polyreactivity'),
  ('QVQLVESGGGLVQAGGSLRLSCAASGRIFQGYAMGWYRKAPGKERELVAAIRSGSGSTYYADSVKGRFTISRDNAKNTVYLQMNSLKPEDTAVYYCAADRYYWGQGTQVTVSS', 'polyreactivity (PSR sort gate)', 'low polyreactivity');

###

# Assay procedure: yeast display, Sf9 membrane polyspecificity reagent, FACS + sequencing; frameworks hold sequencing errors
Measured quantity: polyreactivity (PSR sort gate)

INSERT INTO assay_data (sequence_record, recorded_value) VALUES
  ('QVQLVESGGGLVQAGGSLRLSCAASGRTFSHYAMGWYRQAPGKVRELVADISWNGGRTYYADSVKGRFTISRDNAKNTVYLQMNSLKPEDTAVYYCAKVRYWAWSYEYWGQGTQVTVSS', 'high polyreactivity'),
  ('QVQLVESGGGLVQAGGSLRLSCAASGSTFYRNTMGWYRQAPGKERELVAAISRTGASTHYADSVKGRFTISRDNAKNTVYLQMNSLKPEDTAVYYCNAVPAIGKYYGGGYWGQGTQVTVSS', 'high polyreactivity'),
  ('QVQLVESGAGLVQAGGSLSLSCAASVSILRFYAMGWYRQAPGKERELVAAISTRGGSTYYADSVKGRFTISRVNAKYTVYLQMNSLKPEDTAVYYCAKRWPQYTDYKPMYYWGQGTQLTVSS', 'high polyreactivity'),
  ('QVQLVESGGGLVQAGGSLRLSCAASGGNFKQYAMGWYRQAPGKERELVAAISRRGGSTYYADSVKGRFTISRDNAKNTVYLQMNSLKPEDTAVYYCAAPGPTQSTQRGGYWGQGTQVTVSS', 'high polyreactivity'),
  ('QVQLVESGGGLVQAGGSLRLSCAASGRTFWLYAMGWYRQAPGKERELVARITRRDGSTNYADSVKGRFTISRDNAKNTVYLQMNSLKPEDTAVYYCAAGRFRYPPGAYDYWGQGIQVTVSS', 'high polyreactivity'),
  ('QVQLVESGGGLVQPGGSLRLSCAASGLTFPWYAMGWYRQAPGQERELVAAITNSDGNTFADSVKGRFTISRDNAKNSVYLQMNSLKAEDTAVYSCATDTRSLAYYYWGQGTQVTVSS', 'low polyreactivity'),
  ('QVQLVESGGGLVQAGGSLRLSCAASGRTFSLNAMGWYRQAPGKEREFVAAISSTGGSTYYADSVKGRFTISRDNAKNTVYLQMNSLKPEDTAVYYCAKRSVYRTALGRYSVAYDYWGQGTQVTVSS', 'high polyreactivity'),
  ('QVQLVESGGCLVQAGGSIRLSCAASGSIFKSNAMGWYRQAPGKERELVAAISNGGITNYADSVKVRFTISRDNAKNTDYLQMNSLKPEDTAVYYCNARNNYWWYCPGYDYWGQGTQLTVSS', 'low polyreactivity'),
  ('QVQLVESGGGLVQAGGSLRLSCAASGRTFERNAMGWYRPAPGKERELVAAITWSGVSTYYADSVKGRFTISRDNAKNTVYLQMNSLKPEDTAVYYCAADWDWRFHRMNYWGQGTQVTVSS', 'low polyreactivity'),
  ('QVQLVESGGGLVQAGGSLRLSCAASGNTFYVNVMGWYRQAPGKEREFVAAISTRGVSTSYADSVKGRFTISRDNAKNTVYLQMNSLKPEDTAVYYCAASFRRPQPKGTTYGYWGQGTQVTVSS', 'high polyreactivity'),
  ('QVQIVESGGGLVQAGGSLRLSCAASGRIFAGYAIGWYRQAPGKERELVAAISSGGSTYYADSVKGRFTISRDNAKNTVYLQMNSLKPEDTAVYYCSAVGRRVYGTKFYYWGQGTQVTFSS', 'high polyreactivity'),
  ('QVQLVESGGGLVQAGGSLRLSCAASGVIFRRYAMGWYREAPGKERELVAAMSSSGGRTTYADSVNGRFTISRDNAKNTVYIQMNSLKPEDTAVYYCNADLWPGNHDGYWGQGTQVTVSS', 'low polyreactivity'),
  ('QVQLVESGGGVVQAGGSLRLSCAGSGFIFSYYTMGWYRQAPGKERELVAAITSGGSTNYADSVKGRFTISRDNAKNTVYLQMNSLKPEDTAVYYCNALLWAWTLWGSGYDYWGQGTQVTVSS', 'low polyreactivity'),
  ('QVQLVESGGGLVQAGGSLRLSCAASGITFYGYAMGWYRPAPGKERELVARITISGRTNYADYVKGRFTISRDNAKNTVYLQMNSLKPEDTAVYYCATLVHWSYPYYYWGQGTQVTVSS', 'high polyreactivity');

This collection of values is drawn from the nanobody polyreactivity screen of Harvey et al. (2022).
